EXPERIMENTAL SYSTEM: Dihydroorotate dehydrogenase (quinone), mitochondrial (Plasmodium falciparum (isolate 3D7)) (UniProt Q08210)
Sequence (Q08210 whole entry, looked up): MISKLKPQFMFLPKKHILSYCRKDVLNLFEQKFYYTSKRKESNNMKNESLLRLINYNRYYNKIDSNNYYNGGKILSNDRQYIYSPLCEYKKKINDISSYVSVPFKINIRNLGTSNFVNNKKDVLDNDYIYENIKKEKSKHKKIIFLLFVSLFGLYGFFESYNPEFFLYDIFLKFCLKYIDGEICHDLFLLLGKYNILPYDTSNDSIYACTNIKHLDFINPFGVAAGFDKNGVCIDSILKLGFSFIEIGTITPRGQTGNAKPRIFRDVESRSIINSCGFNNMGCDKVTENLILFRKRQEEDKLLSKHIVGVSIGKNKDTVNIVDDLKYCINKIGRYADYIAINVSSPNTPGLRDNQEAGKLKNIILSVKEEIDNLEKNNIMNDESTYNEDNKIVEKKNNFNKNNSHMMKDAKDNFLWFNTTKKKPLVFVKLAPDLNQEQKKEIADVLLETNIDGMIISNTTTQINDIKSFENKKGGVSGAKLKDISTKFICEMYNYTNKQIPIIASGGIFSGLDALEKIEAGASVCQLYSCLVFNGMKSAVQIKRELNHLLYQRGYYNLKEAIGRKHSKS
TEST DESCRIPTION: PfDHODH enzyme inhibitors, primary screen, biochemical, C-terminal His tag, absorbance 600 nm (AID 1175);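 note: recombinant parasite enzyme with a five histidine tag at its C terminus; test concentration not given here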
SETUP CONDITIONS: DCIP absorbance 600 nm, higher = more signal, called active from +8 up or from −8 down
Give criterion met when the value for composite z-score is at least 0.09. Give criterion not met when it is less.

# MOLECULE, CATEGORY
rows = [
    ("CCOC(=O)[C@H](Cc1ccccc1)NC(=O)CCC1CC(OC(=O)NCc2cccc3ccccc23)CC2(CCCC(COC(=O)NCCCN3CCCC3=O)O2)O1 (some centres undefined)", "criterion not met"),
    ("C[C@@H]1CC[C@@H](C(=O)O)N[C@H]1c1ccc(-c2ccco2)cc1", "criterion met"),
    ("Cc1ccc(S(=O)(=O)N[C@H]2COC(=O)[C@@H](C)COC(=O)[C@H](C)NC(=O)CC=C[C@H]2C)cc1", "criterion not met"),
    ("O=C(NN=C1C[C@@H](O)[C@@H](O)[C@@H]2[C@@H]3C(=O)N(Cc4ccc5c(c4)OCO5)C(=O)[C@@H]3CC[C@H]12)OCc1ccccc1", "criterion not met"),
]

Entry "CC(C)=CCCC(C)=CCON=C1C[C@@H](O)[C@@H](O)[C@@H]2[C@@H]3C(=O)N([C@@H](C)c4ccccc4)C(=O)[C@@H]3CC[C@H]12" : is its composite z-score no less than 0.09?
criterion not met
